- STUDY TARGET: Orexin/Hypocretin receptor type 1 (Rattus norvegicus, UniProt P56718)
- Sequence (P56718 whole entry): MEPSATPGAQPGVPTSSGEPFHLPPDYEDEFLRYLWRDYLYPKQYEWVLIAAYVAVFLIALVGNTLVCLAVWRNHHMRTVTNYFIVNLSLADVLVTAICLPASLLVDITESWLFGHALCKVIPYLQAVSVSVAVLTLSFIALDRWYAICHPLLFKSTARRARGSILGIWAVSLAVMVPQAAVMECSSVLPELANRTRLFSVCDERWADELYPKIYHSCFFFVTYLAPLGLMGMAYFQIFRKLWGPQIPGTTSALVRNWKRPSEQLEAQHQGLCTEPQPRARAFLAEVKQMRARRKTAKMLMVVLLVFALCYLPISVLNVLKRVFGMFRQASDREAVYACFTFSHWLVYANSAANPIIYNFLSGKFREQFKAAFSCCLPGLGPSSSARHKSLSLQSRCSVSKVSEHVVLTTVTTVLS
- ASSAY: FLIPR Ca2+ Flux Assay: Chinese hamster ovary (CHO) cells expressing the rat orexin-1 receptor or the human orexin-2 receptor, are grown in Iscove's modified DMEM containing 2 mM L-glutamine, […], 1% hypoxanthine-thymidine supplement, 100 U/ml penicillin, 100 ug/ml streptomycin and 10% heat-inactivated fetal calf serum (FCS). The cells are seeded at 20,000 cells/well into Becton-Dickinson black 384-well clear bottom sterile plates coated with poly-D-lysine. All reagents were from GIBCO-Invitrogen Corp. The seeded plates are incubated overnight at 37° C. and 5% CO2. Ala-6,12 human orexin-A as the agonist is prepared as a 1 mM stock solution in 1% bovine serum albumin (BSA) and diluted in assay buffer (HBSS containing 20 mM HEPES, 0.1% BSA and 2.5 mM probenecid, pH7.4) for use in the assay at a final concentration of 70 pM. Test compounds are prepared as 10 mM stock solution in DMSO, then diluted in 384-well plates, first in DMSO, then assay buffer. On the day of the assay, cells are washed 3 times with 100 ul assay buffer and then incubated for 60 min (37° C., 5% CO2) in 60 ul assay buffer containing 1 uM Fluo-4AM ester, 0.02% pluronic acid, and 1% BSA. The dye loading solution is then aspirated and cells are washed 3 times with 100 ul assay buffer. 30 ul of that same buffer is left in each well. Within the Fluorescent Imaging Plate Reader (FLIPR, Molecular Devices), test compounds are added to the plate in a volume of 25 ul, incubated for 5 min and finally 25 ul of agonist is added. Fluorescence is measured for each well at 1 second intervals for 5 minutes and the height of each fluorescence peak is compared to the height of the fluorescence peak induced by 70 pM Ala-6,12 orexin-A with buffer in place of antagonist.
READOUT: pIC50
Please treat pIC50 as minus the base-10 logarithm of the molar concentration.

STRUCTURE SMILES	READOUT	VAL
C[C@@H]1CC[C@@H](Oc2cc(C#N)ccn2)CN1C(=O)c1ccccc1-n1nccn1	pIC50	5.44

The compound C[C@@H]1CC[C@@H](Oc2cc(C#N)ccn2)CN1C(=O)c1ccccc1-c1ncccn1 showed pIC50 equal to 5.31
